This section presents compounds with their documented Induction EROD activity values.
System: CYP1A1 activity (EROD) in MCF-7 cells
Method summary: Induction of EROD activity in lysates of treated MCF-7 cells
Format: cell-based, human
Run parameters: lysates of MCF-7 cells treated with 1 μM, 24 h; negligible activity in untreated lysates; mean of three, s.d. <10%

Guide cases for Induction EROD activity, answers given:
Cc1cc(-c2nc3cc(F)c(F)cc3s2)ccc1NC(=O)[C@@H](N)CCCCN :: 20.04 nM resorufin mg^-1 protein
Cc1cc(-c2nc3cc(F)c(F)cc3s2)ccc1NC(=O)[C@H](C)N :: 17.09 nM resorufin mg^-1 protein
Cc1cc(-c2nc3ccc(F)cc3s2)ccc1NC(=O)[C@@H](N)CCCCN :: 19.88 nM resorufin mg^-1 protein
Cc1cc(-c2nc3cc(F)c(F)cc3s2)ccc1N :: 32.02 nM resorufin mg^-1 protein
Cc1cc(-c2nc3ccc(F)cc3s2)ccc1NC(=O)[C@H](C)N :: 20.40 nM resorufin mg^-1 protein

Task item: Entry Cc1cc(-c2nc3ccccc3s2)ccc1N : reported Induction EROD activity = ?
Reply: 17.58 nM resorufin mg^-1 protein

Task item: Entry Cc1cc(-c2nc3cc(F)ccc3s2)ccc1N : reported Induction EROD activity = ?
Reply: 36.64 nM resorufin mg^-1 protein

Task item: Entry Cc1cc(-c2nc3cc(F)ccc3s2)ccc1NC(=O)[C@H](C)N : reported Induction EROD activity = ?
Reply: 28.37 nM resorufin mg^-1 protein

Task item: Entry Cc1cc(-c2nc3ccc(F)cc3s2)ccc1N : reported Induction EROD activity = ?
Reply: 32.60 nM resorufin mg^-1 protein

Task item: Entry Cc1cc(-c2nc3cc(F)ccc3s2)ccc1NC(=O)[C@@H](N)CCCCN : reported Induction EROD activity = ?
Reply: 35.56 nM resorufin mg^-1 protein

====

Tested on: MDA 468 (ER−) human derived breast carcinoma cells
Value type: GI50 (nM)
Supply the numeric figure in nM, leaving out any unit text.

Guide cases for GI50, answers given:
Cc1cc(-c2nc3ccccc3s2)ccc1NC(=O)[C@@H](N)CCCCN :: 67.1
Cc1cc(-c2nc3ccc(F)cc3s2)ccc1NC(=O)[C@@H](N)CCCCN :: 328
Cc1cc(-c2nc3cc(F)c(F)cc3s2)ccc1N :: 3.55

Lab note: next molecule to report on.
Task item: # query: GI50 | item Cc1cc(-c2nc3cc(F)c(F)cc3s2)ccc1NC(=O)[C@@H](N)CCCCN | system: MDA 468 (ER−) human derived breast carcinoma cells
Reply: 302

====

Experimental system: CYP1A1 (Homo sapiens)
Sequence (P04798 whole entry): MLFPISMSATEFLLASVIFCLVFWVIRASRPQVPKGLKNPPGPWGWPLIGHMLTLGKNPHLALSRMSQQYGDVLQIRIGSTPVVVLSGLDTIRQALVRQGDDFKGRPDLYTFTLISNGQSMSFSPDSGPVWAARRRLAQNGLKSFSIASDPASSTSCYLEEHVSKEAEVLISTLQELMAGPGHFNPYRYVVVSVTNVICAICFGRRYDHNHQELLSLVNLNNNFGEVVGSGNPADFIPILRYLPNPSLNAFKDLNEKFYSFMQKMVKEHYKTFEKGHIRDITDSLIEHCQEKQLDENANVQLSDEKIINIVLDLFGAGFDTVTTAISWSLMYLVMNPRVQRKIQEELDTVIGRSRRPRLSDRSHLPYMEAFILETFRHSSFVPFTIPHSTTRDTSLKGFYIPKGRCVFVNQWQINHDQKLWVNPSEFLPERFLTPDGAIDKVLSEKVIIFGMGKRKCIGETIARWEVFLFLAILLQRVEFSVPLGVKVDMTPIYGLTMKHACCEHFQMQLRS
Method summary: Inhibition of recombinant CYP1A1 microsomal EROD activity
Format: biochemical
Run parameters: microsomes expressing recombinant CYP1A1, pH 7.4, probe 7-ethoxyresorufin (100 μM); 30 μM agent; incubates without drug = 100% activity; mean of three, s.d. <10%; read-out: Microsomal CYP1A1 EROD activity (% control)
This section presents molecules with their documented activity at 15 min, 30 μM values.

Task item: # query: activity at 15 min, 30 μM | item Cc1cc(-c2nc3cc(F)ccc3s2)ccc1N | system: CYP1A1 (Homo sapiens)
Reply: 30.4%

Task item: # query: activity at 15 min, 30 μM | item Cc1cc(-c2nc3cc(F)c(F)cc3s2)ccc1NC(=O)[C@@H](N)CCCCN | system: CYP1A1 (Homo sapiens)
Reply: 54.9%

Task item: # query: activity at 15 min, 30 μM | item Cc1cc(-c2nc3ccc(F)cc3s2)ccc1N | system: CYP1A1 (Homo sapiens)
Reply: 36.4%

Task item: # query: activity at 15 min, 30 μM | item Cc1cc(-c2nc3cc(F)ccc3s2)ccc1NC(=O)[C@H](C)N | system: CYP1A1 (Homo sapiens)
Reply: 40.6%

From: paper PMC2375326
